assay: A549 cell cytotoxicity, dose response, cytotoxicity control, luminescence, dry powder, set 12 (AID 743472); details: A549 viability, CellTiter-Glo ATP luminescence, 72 h; at 26 µM (top of the series)
endpoint name: activity change, negative = cytotoxicity (%)
One number for each entry, in %.

Data request, read-out activity change, negative = cytotoxicity, for "Cc1ccc(S(=O)(=O)N2CC[C@@H]3[C@@H](CO)Nc4ccc(-c5ccc(C#N)cc5)cc4[C@@H]32)cc1"
-24.8

# activity change, negative = cytotoxicity lookup, item Cc1ccccc1C1C(C#N)=C(N)Oc2cc(N)ccc21 (stereo not given)
-2.49

Recorded activity change, negative = cytotoxicity of COc1ccc(C2C(C#N)=C(N)Oc3cc(N)ccc32)cc1 (stereo not given) , please.
0.547

Consider the molecule shown here: "COc1ccc(S(=O)(=O)N(C(C)=O)c2ccc(OC(C)=O)c3ccccc23)cc1[N+](=O)[O-]" What is its recorded activity change, negative = cytotoxicity?
-4.12

***
Returns the measured activity change, negative = cytotoxicity for the input molecule. Input: "COc1ccc(C2=Nn3c(nnc3-c3ccccc3)SC2)cc1OC"
-5.8
